ASSAY_ENDPOINT: melting point

Problem: Recorded melting point of COC(=O)C1(c2ccccc2)CCN(CCCNC(=O)C2=C(C)NC(C)=C(C(N)=O)C2c2ccc([N+](=O)[O-])cc2)CC1 (stereo not shown) , please.
Result: 120 to 121 °C

Problem: Then CCC1=C(C(=O)O)C(c2ccc([N+](=O)[O-])cc2)C(C(=O)NCCCN2CCC(c3ccccc3)(c3ccccc3)CC2)=C(COC)N1 (stereo not shown) ?
Result: 120 to 125 °C (dec.)

Problem: Then CCC1=C(C(=O)OC)C(c2ccc([N+](=O)[O-])cc2)C(C(=O)NCCCN2CCC(C(=O)OC)(c3ccccc3)CC2)=C(COCCN)N1 (stereo not shown) ?
Result: 140 °C (dec.)

Problem: Then CC1=C(C(N)=O)C(c2ccc(S(C)(=O)=O)cc2)C(C(=O)NCCCN2CCC(c3ccccc3)(c3ccccc3)CC2)=C(C)N1 (stereo not shown) ?
Result: 206 to 209 °C

Problem: Then CCC1=C(C(N)=O)C(c2ccc(S(C)(=O)=O)cc2)C(C(=O)NCCCN2CCC(c3ccccc3)(c3ccccc3)CC2)=C(C)N1 (stereo not shown) ?
Result: 182 to 183 °C

Problem: Then CCC1=C(C(N)=O)C(c2ccc([N+](=O)[O-])cc2)C(C(=O)NCCCN2CCC(c3ccccc3)(c3ccccc3)CC2)=C(COCCN=[N+]=[N-])N1 (stereo not shown) ?
Result: 88 to 93 °C

Problem: Then COC(=O)C1(c2ccccc2)CCN(CCCNC(=O)C2=C(COCCCN)NC(C)=C(C(C)=O)C2c2ccc([N+](=O)[O-])cc2)CC1 (stereo not shown) ?
Result: 70 °C (dec.)

Problem: Then CCC1=C(C(=O)OCCO)C(c2ccc([N+](=O)[O-])cc2)C(C(=O)NCCCN2CCC(c3ccccc3)(c3ccccc3)CC2)=C(COC)N1 (stereo not shown) ?
Result: 73 °C (dec.)

Problem: Then CC1=C(C(N)=O)C(c2cccc([N+](=O)[O-])c2)C(C(=O)NCCCN2CCC(c3ccccc3)CC2)=C(C)N1 (stereo not shown) ?
Result: 92 to 96 °C

Problem: Then COC(=O)C1=C(C)NC(C)=C(C(=O)NCCCN2CCC(c3ccccc3)(c3ccccc3)CC2)C1c1ccc(Cl)c([N+](=O)[O-])c1 (stereo not shown) ?
Result: 178 to 181 °C

Problem: Then COC(=O)C1=C(C)NC(C)=C(C(=O)NCCCN2CCC(c3ccccc3)(c3ccccc3)CC2)C1c1ccc(F)cc1 (stereo not shown) ?
Result: 251 to 251.5 °C

Problem: Then CCC1=C(C(N)=O)C(c2ccc([N+](=O)[O-])cc2)C(C(=O)NCCCN2CCC(C(=O)OC)(c3ccccc3)CC2)=C(CCCCN)N1 (stereo not shown) ?
Result: 75 to 78 °C

Problem: Then CCC1=C(C(=O)NN2CCOCC2)C(c2ccc([N+](=O)[O-])cc2)C(C(=O)NCCCN2CCC(c3ccccc3)(c3ccccc3)CC2)=C(COC)N1 (stereo not shown) ?
Result: 112 °C (dec.)

Problem: Then CC1=C(C(N)=O)C(c2ccc([N+](=O)[O-])cc2)C(C(=O)NCCCN2CCC(C#N)(c3ccccc3)CC2)=C(COCCN=[N+]=[N-])N1 (stereo not shown) ?
Result: 81 °C (dec.)

Problem: Then CCC1=C(C(=O)NC)C(c2ccc([N+](=O)[O-])cc2)C(C(=O)NCCCN2CCC(c3ccccc3)(c3ccc(OC)cc3)CC2)=C(CC)N1 (stereo not shown) ?
Result: 133 °C (dec.)

Problem: Then CCCC1=C(C(=O)NCC)C(c2ccc([N+](=O)[O-])cc2)C(C(=O)NCCCN2CCC(c3ccccc3)(c3ccccc3)CC2)=C(CCC)N1 (stereo not shown) ?
Result: 123 to 128 °C

* * *

Target: α1B Human Adrenergic Receptor (Homo sapiens, UniProt P35368)
Construct: The entire coding region of α1B (1563 bp); expressed in transfected cells
Sequence (P35368 whole entry): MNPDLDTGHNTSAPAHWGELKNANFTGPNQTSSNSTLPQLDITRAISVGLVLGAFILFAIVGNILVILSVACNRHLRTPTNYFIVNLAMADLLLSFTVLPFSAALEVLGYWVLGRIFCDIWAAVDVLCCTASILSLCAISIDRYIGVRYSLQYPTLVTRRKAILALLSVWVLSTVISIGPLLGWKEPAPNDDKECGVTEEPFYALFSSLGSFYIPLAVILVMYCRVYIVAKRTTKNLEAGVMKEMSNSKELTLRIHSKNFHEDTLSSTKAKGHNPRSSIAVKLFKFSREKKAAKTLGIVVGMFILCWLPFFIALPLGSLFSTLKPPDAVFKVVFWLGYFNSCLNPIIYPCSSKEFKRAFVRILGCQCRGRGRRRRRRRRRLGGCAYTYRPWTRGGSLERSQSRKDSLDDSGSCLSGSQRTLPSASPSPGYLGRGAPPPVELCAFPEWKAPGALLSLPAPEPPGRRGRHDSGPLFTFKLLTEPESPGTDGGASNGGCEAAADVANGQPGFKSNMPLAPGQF
Test: Radioligand binding, [3H]prazosin, cloned human α1B adrenergic receptor
Settings: cloned human α1B receptor, LM(tk−) cell membranes, read-out: pKi alpha-1 1b (converted)
Counter-ions that a name gives are not always drawn.
Would you kindly list Ki for each of these compounds?
Numeric only. Scale: nM

Problem: Hi! What's the reported Ki for CCC1=C(C(N)=O)C(c2ccc([N+](=O)[O-])cc2)C(C(=O)NCCCN2CCC(c3ccc(OC)cc3)(c3ccc(OC)cc3)CC2)=C(CC)N1 (stereo not shown) [Example 103, hydrochloride] on α1B Human Adrenergic Receptor (Homo sapiens, UniProt P35368)?
Result: 182

Problem: Then CCC1=C(C(N)=O)C(c2ccc([N+](=O)[O-])cc2)C(C(=O)NCCCN2CCC3(CC2)C(=O)NCN3c2ccccc2)=C(CC)N1 (stereo not shown) [Example 105, hydrochloride hydrate] ?
Result: 3160

Problem: Then CCC1=C(C(=O)NC)C(c2ccc([N+](=O)[O-])cc2)C(C(=O)NCCCN2CCC(c3ccccc3)(c3ccc(OC)cc3)CC2)=C(CC)N1 (stereo not shown) ?
Result: 1000

Problem: Then CCC1=C(C(N)=O)C(c2ccc([N+](=O)[O-])cc2)C(C(=O)NCCCN2CCN(c3ccccc3)CC2)=C(CC)N1 (stereo not shown) [Example 104, hydrochloride hydrate] ?
Result: 34.7

Problem: Then CC1=C(C(N)=O)C(c2ccc([N+](=O)[O-])cc2)C(C(=O)NCCCN2CCC(c3ccccc3)(c3ccccc3)CC2)=C(COCCN=[N+]=[N-])N1 (stereo not shown) ?
Result: 87.1

Problem: Then CCC1=C(C(=O)O)C(c2ccc([N+](=O)[O-])cc2)C(C(=O)NCCCN2CCC(c3ccccc3)(c3ccccc3)CC2)=C(COC)N1 (stereo not shown) ?
Result: 407

Problem: Then CC1=C(C(=O)OCC[Si](C)(C)C)C(c2ccc([N+](=O)[O-])cc2)C(C(=O)NCCCN2CCC(c3ccccc3)(c3ccccc3)CC2)=C(COCCN=[N+]=[N-])N1 (stereo not shown) ?
Result: 219

Problem: Then CNC(=O)C1=C(C)NC(C)=C(C(=O)NCCCN2CCC(c3ccccc3)(c3ccccc3)CC2)C1c1ccc([N+](=O)[O-])cc1 (single isomer, unassigned; (+)) [(+)-119] ?
Result: 832

Problem: Then COc1ccccc1N1CCN(CCCNC(=O)C2=C(C)NC(C)=C(C(N)=O)C2c2ccc([N+](=O)[O-])cc2)CC1 (stereo not shown) ?
Result: 89.1

Problem: Then CCC1=C(C(N)=O)C(c2ccc([N+](=O)[O-])cc2)C(C(=O)NCCCN2CCC(c3ccccc3)CC2)=C(CC)N1 (stereo not shown) ?
Result: 72.4

Problem: Then CCNC(=O)C1=C(CC)NC(CC)=C(C(=O)NCCCN2CCC(c3ccccc3)(c3ccc(OC)cc3)CC2)C1c1ccc([N+](=O)[O-])cc1 (stereo not shown) ?
Result: 955

Problem: Then CCC1=C(C(=O)OCCC#N)C(c2ccc([N+](=O)[O-])cc2)C(C(=O)NCCCN2CCC(c3ccccc3)(c3ccccc3)CC2)=C(COC)N1 (stereo not shown) ?
Result: 178

Problem: Then CNC(=O)C1=C(C)NC(C)=C(C(=O)NCCCN2CCC(c3ccccc3)(c3ccccc3)CC2)C1c1ccc([N+](=O)[O-])cc1 (single isomer, unassigned; (-)) [(−)-119] ?
Result: 676
